Sourced from PubChem BioAssay (NCI)

Task for the reader: assign each of the following molecules its reported growth.
- Test system: MCF7 breast
- measurement.description: NCI-60 one-dose screen, 48 h (100 = growth as untreated, 0 = no growth, -100 = all killed)
- recorded.conditions: 10 µM unless noted
- Method: Growth inhibition of the MCF7 human tumor cell line is measured as a screen for anti-cancer activity. Cells are grown in 96 well plates and exposed to the test compound for 48 hours. Compounds are tested at a single concentration, which is 10^-5 M for most compounds. The reported endpoint is percent growth (GI% or GIPRCNT), where numbers from 0 - 100% represent growth inhibition, and numbers from -100% - 0 represent cell death. For example, a value of 40 represents 60% growth inhibition. […]
Compounds without any hit were thinned out: in the full panel of roughly 83,000, 20% have a hit.
Number in %, nothing else.

Lab entry: MCF7 breast assay, molecule COc1ccc(CC(C)=C(c2ccc(OCCN(C)C)cc2)c2ccc(OCCN(C)C)cc2)cc1 , growth = 69.7

Nc1nnc(C(=O)c2cnc3n(c2=O)CCCCC3)s1 on MCF7 breast gives growth = 98.8

Record CCOC(=O)c1ccc(Nc2ccnc(SCC(=O)c3ccc(C#N)cc3)n2)cc1 / MCF7 breast, growth recorded as 67

Bench note, MCF7 breast: entry O=C1Nc2c(ccc(Cl)c2Cl)/C1=C/c1ccccn1 , its growth = 29

The reported growth value, MCF7 breast, for O=C1NC(=S)NC(=O)C1=Cc1cccc(C=C2C(=O)NC(=S)NC2=O)c1 reads 96.8

====

- Tested on: NCI-H23 lung
- measurement.description: NCI-60 one-dose screen, 48 h (100 = growth as untreated, 0 = no growth, -100 = all killed)
- recorded.conditions: 10 µM unless noted
About 83,000 compounds went through this panel and 20% of them were active in at least one assay; those are over-represented in the sample as a whole. The source made the active and inactive calls. How the source made its calls: active means growth percent below 10; inactive means the rest.
outcome.measure: growth

Query CN1C(=O)N(C)C2NC(N/N=C/c3ccccc3)=NC21 (configuration not stated) yields growth of 100% (inactive)

Per the records, this molecule ( COc1ccc(C2CC(n3nnnc3-c3ccccc3)=NN2)cc1 (configuration not stated) ) has growth equal to 82% (inactive)

The measured growth associated with C#CCNC(=O)[C@H](Cc1ccccc1)NC(=O)[C@]12CC[C@@H](C(=C)C)[C@@H]1[C@H]1CC[C@@H]3[C@@]4(C)Cc5c([nH]c6ccccc56)C(C)(C)[C@@H]4CC[C@@]3(C)[C@]1(C)CC2 reads 94.9% (inactive)

Per the record, COc1c(Cl)cc(Cl)c2ccc(C=C3C(=O)NC(=S)NC3=O)nc12 has growth of 101% (inactive)

The measured growth associated with c1ccc(-c2nn(-c3ccccc3)[n+](-c3cccc4ccccc34)n2)cc1 reads 1.91% (active)

Recorded growth (molecule C#Cc1cccc(NC(=O)Nc2ccc(NC(=O)CCl)cc2)c1 ): -66.6% [8.25 µM] (active)

The measured growth associated with CC(=O)c1cccc(NS(=O)(=O)c2cccc(C(=O)Nc3ccc(Br)cc3)c2)c1 reads 29.4% [25 µM] (inactive)

Sample COc1ccc(C(=O)c2cc(C)c(OC)c(C)c2)c(OC)c1N(C(=O)C(Cl)Cl)C(=O)C(Cl)Cl ; growth observed: 21.9% (inactive)

Value of measured growth for the entry CN1CCN(C(=O)OCc2nc3c(N4CCOCC4)nc(-c4ccccc4)nc3n2C)CC1 : -77.1% (active)

The value of growth measured for the molecule Cc1ccc(S(=O)(=O)Nc2ccc(Cl)cc2)cc1 turned out to be 91.6% (inactive)

Looking up Cc1cccc(Oc2ccc(Nc3ncnc4ccc(NC(=O)CN(C)C)cc34)cc2Cl)c1 , I found its growth recorded as 78.4% (inactive)

// recorded growth for O=S(=O)(NCCCNc1nccc(-c2c(-c3cccc(O)c3)nc3occn23)n1)c1ccc(Br)cc1 : 101% (inactive)

Memo: CC[C@@]12C=CCN3CC[C@]4(c5cc(NC(=O)COc6cc(OCC(=O)Nc7cc8c(cc7OC)N(C)[C@H]7[C@@](O)(C(=O)OC)[C@H](OC(C)=O)[C@]9(CC)C=CCN%10CC[C@]87[C@@H]%109)cc7oc(-c8ccccc8)cc(=O)c67)c(OC)cc5N(C)[C@@H]4[C@](O)(C(=O)OC)[C@H]1OC(C)=O)[C@H]32 , reported growth: 0.327% (active)

Value of growth reported for the molecule BrC(Br)(Br)c1cnc2ccccc2n1 is 64.2% (inactive)

// COc1ccc2c(c1)c(CC(=O)NCCOCCOCC(=O)Nc1ccc(OC)c(C(N)=O)c1O)c(C)n2C(=O)c1ccc(Cl)cc1 : growth value = 90.1% (inactive)

Measured growth of COc1cnccc1-c1nc2ccc3[nH]ncc3c2c2c1CCCC2 : 67.1% (inactive)

Field growth (entry COc1ccc(-c2nc(N/N=C/c3cccc(O)c3)nc(N3CCOCC3)c2C#N)cc1 ) reads 99.5% (inactive)

====

- Tested on: SK-MEL-28 melanoma
- measurement.description: NCI-60 one-dose screen, 48 h (100 = growth as untreated, 0 = no growth, -100 = all killed)
- recorded.conditions: 10 µM unless noted
This is part of a sample that, as a whole, favours compounds with a hit. Of some 83,000 tested, about 20% had one in any assay.
// returns Not satisfied unless growth is strictly below 90%, in which case Satisfied

Does this molecule meet the criterion growth < 90%? Fc1cc(C2=NNC(c3ccc[nH]3)C2)ccc1-n1ccc(C(F)(F)F)n1 (centres undefined)
Not satisfied

Determine whether this molecule shows growth lower than 90% (ties excluded): Cc1ccc(C2CC(c3cccc(Nc4ccncc4)c3)=NN2c2ccccc2)cc1 (centres undefined)
Satisfied

Is growth strictly under 90% for the entry C=C(C)[C@@H]1CC[C@]2(C(=O)NCCCN(CCC#N)CCC#N)CC[C@]3(C)[C@H](CC[C@@H]4[C@@]5(C)CCC(=O)C(C)(C)[C@@H]5CC[C@]43C)[C@@H]12 ?
Not satisfied

Hello, is growth of the following molecule strictly smaller than 90%? COc1cc2nnn3c4ncccc4c(N=O)c3c2cc1OC
Satisfied

Is the reported growth for NC(=O)C1(N2CCCCC2)CCN(CCCC(=O)c2ccc(F)cc2)CC1 strictly below 90%?
Satisfied

Would you kindly verify if growth of FC(F)(F)Oc1cccc(-c2cc(NCCCCCCNc3cc(-c4cccc(OC(F)(F)F)c4)nc4ccc(N5CCCC5)cc34)c3cc(N4CCCC4)ccc3n2)c1 is strictly less than 90%?
Satisfied

Report whether reported growth is lower than 90% (strictly) for Cc1cc(Nc2cccc(C(F)(F)F)c2)n2c(nc3ccccc32)c1C#N
Satisfied

Lab note: confirm whether the reported growth for this molecule is below 90%, equality not counting. molecule: C#CC(=O)Nc1cccc2c1cc(C)n2-c1nc2c(c(NCc3ccccc3)n1)CCCC2
Satisfied

====

Would you kindly list growth for each of these compounds?
- System: M14 melanoma
- measurement.description: NCI-60 one-dose screen, 48 h (100 = growth as untreated, 0 = no growth, -100 = all killed)
- recorded.conditions: 10 µM unless noted
- Description: Growth inhibition of the M14 human tumor cell line is measured as a screen for anti-cancer activity. Cells are grown in 96 well plates and exposed to the test compound for 48 hours. Compounds are tested at a single concentration, which is 10^-5 M for most compounds. The reported endpoint is percent growth (GI% or GIPRCNT), where numbers from 0 - 100% represent growth inhibition, and numbers from -100% - 0 represent cell death. For example, a value of 40 represents 60% growth inhibition. […]
Compounds without any hit were thinned out: in the full panel of roughly 83,000, 20% have a hit.
Respond numerically; units are % and should not be typed.

// growth lookup, compound = Cc1cc(C)c(C=O)c(C)c1 , result: 84.3

Lab note: measured growth of COc1ccc(NC(=O)c2sc3nc(C)c(C(=O)CCc4cccc(OC)c4)cc3c2N)cc1 was 70.1

Documented growth of CCOC(=O)N1CCc2c(sc3nc4nc[nH]n4c(=O)c23)C1 : 98.4

Sure, the documented growth for O=C(OCc1nc2nc(Cl)nc(N3CCOCC3)c2[nH]1)n1ccnc1 is -37.6

Value of growth reported for the compound O=C1c2cccnc2C(=O)c2nc3cc(N4CCN(C5CC5)CC4)ccc3nc21 is -91.2

Lab note: CS(=O)(=O)Nc1cc(-c2ccc3ncnc(Nc4ccc5[nH]ncc5c4)c3c2)cnc1Cl gave growth of 80.8

Kindly note the recorded growth for N#Cc1c(NC(=O)c2cccc(Br)c2)sc2c1CCCC2 , which is 72.2

Entry COc1ccc(Cl)cc1NC(=O)c1c(NC(=O)C(F)(F)C(F)(F)F)sc2c1CCCCC2 — recorded growth = 0.83

In plain terms, COc1ccccc1/C=N/NC1=NC2C(N1)N(C)C(=O)N2C (stereo not given) has a documented growth of 99.7

What the record says about Cc1ccc(C2CC(c3cccc(Nc4ccncc4)c3)=NN2c2ccccc2)cc1 (stereo not given) : growth is -49.8

Form: compound = Cc1cc(C)n(Nc2nc3ccccc3[nH]c2=O)c(=O)c1C#N ; growth = 98.8

Per the record, NC(=O)c1ccc[n+](CC(=O)N2CCN(c3cc4c(cc3F)c(=O)c(C(=O)O)cn4C3CC3)CC2)c1 has growth of 76.4

Data point: COc1ccc(C(=O)c2cc3c(N)c(C(=O)Nc4ccc(Br)cc4)sc3nc2C)cc1 ; growth = 74.1

Per the records, this compound ( O=C(CCN1CCCC1)Nc1ccc2c(NCc3ccc(F)cc3)c3ccccc3nc2c1 ) has growth equal to -25

Input N/C(=N\N=C\c1cc2ccccc2[nH]1)N/N=C/c1cc2ccccc2[nH]1 . Output growth: 99.4

growth recorded for this compound, COc1ccccc1N1CCN(C(=O)c2ccc3nc(NC(=O)c4ccc(NCCc5ccccc5)c([N+](=O)[O-])c4)sc3c2)CC1 , is 64.4

Notebook: COc1ccc(C(O)c2cc3c(N)c(C(=O)Nc4ccc(Cl)cc4)sc3nc2C)cc1 (stereo not given) , growth read as 7.86

Value of measured growth for the entry O=C1CCCN1c1cccc2cccnc12 : 103

growth for COC(=O)Nc1nc2ccc(C(=O)c3cccc(I)c3)cc2[nH]1 is 1.39

Looking up FC(F)(F)Oc1cccc(-c2cc(NCCCCCCNc3cc(-c4cccc(OC(F)(F)F)c4)nc4ccc(N5CCCC5)cc34)c3cc(N4CCCC4)ccc3n2)c1 , I see its growth listed as -84
